Tested on: MDA-MB-435
Reply using exactly one outcome from active, inactive

The examples below pair each entry with its known result.
Problem: Per the records of this test, what outcome belongs to CCN(CC)CCC(=O)O[C@H]1CC[C@H](CC(C)[C@H]2CC(=O)C(C)C=C(C)[C@H](OC(=O)CCN(CC)CC)C(OC)C(=O)[C@@H](C)CC(C)/C=C/C=C/C=C(C)C(OC)CC3CC[C@H](C)[C@](O)(O3)C(=O)C(=O)N3CCCCC3C(=O)O2)CC1OC (some centres undefined) ?
Result: inactive

Problem: Per the records of this test, what outcome belongs to C=C1C(=O)O[C@H]2[C@H]1CC/C(CNC(=O)/C=C/c1ccc(Cl)cc1Cl)=C\CC[C@@]1(C)O[C@@H]21 ?
Result: inactive

Problem: Per the records of this test, what outcome belongs to Nc1ccccc1C#C/C=C\C#Cc1ccccc1F ?
Result: inactive

Problem: Per the records of this test, what outcome belongs to Cc1ccc(-c2c3c(N)c4c(nc3nc3c2c(C)nn3-c2ccccc2)CCC4)cc1 ?
Result: inactive

Continuing:
Problem: Per the records of this test, what outcome belongs to COc1cc2nc(N3CCC[C@@H](NC4=CC(=O)c5ccccc5C4=O)C3)nc(N)c2cc1OC ?
Result: inactive

Problem: Per the records of this test, what outcome belongs to CCCCN(CCCC)CCC(O)c1cc2ccc(C(F)(F)F)cc2c2cc(C(F)(F)F)ccc12 (centres undefined) ?
Result: inactive

Problem: Per the records of this test, what outcome belongs to CN(CCCN(C)CCC1CCCCC1)CCC1CCCCC1 ?
Result: inactive

Problem: Per the records of this test, what outcome belongs to Oc1ccc(O)c2c1C1(Cl)C(Cl)=C(Cl)C2(Cl)C1(Cl)Cl ?
Result: inactive

Problem: Per the records of this test, what outcome belongs to COc1ccc(CN=C(N)N=C(N)N)cc1OC ?
Result: inactive

Problem: Per the records of this test, what outcome belongs to CC1=NN(C(=O)c2nn(-c3ccc(Cl)cc3)cc2O)C(=O)C1 ?
Result: inactive

Problem: Per the records of this test, what outcome belongs to CCc1c2c(nc3ccc(OCc4ccc(B5OC(C)(C)C(C)(C)O5)cc4)cc13)-c1cc3c(c(=O)n1C2)COC(=O)[C@]3(O)CC ?
Result: active

Problem: Per the records of this test, what outcome belongs to CCc1nc(N)nc(N)c1C#CC(C)c1cc(-c2ccnc(C)c2)c2oc(C)nc2c1 (centres undefined) ?
Result: active

Problem: Per the records of this test, what outcome belongs to CNC(=O)c1cncc(/C=C/c2c(Cl)cccc2Cl)c1 ?
Result: inactive

Problem: Per the records of this test, what outcome belongs to O=C(NN1C(=O)CSC12CCC(c1ccccc1)CC2)c1[nH]c2ccc(F)cc2c1-c1ccccc1 (centres undefined) ?
Result: inactive

====

This listing pairs compounds with measured TGI.
Tested on: IGROV1 ovarian
Assay: NCI tumour cell line growth inhibition, 48 h

Here's what some known entries look like.
Problem: Which TGI is listed for Cc1ccc(-n2cc(-c3ccc(Cl)cc3)c3c2N=CN2NC(c4cccs4)=NC32)cc1 (configuration not stated) ?
Result: 34.7 µM

Problem: Which TGI is listed for COc1ccc2c(c1OC)C(=O)O[C@@H]2[C@H]1c2c(c(Br)c3c(c2OC)OCO3)CCN1C ?
Result: > 100 µM

Problem: Which TGI is listed for c1ccc2c(CN3CCC(C4CCN(Cc5cccc6ccccc56)CC4)CC3)cccc2c1 ?
Result: > 100 µM

Continuing:
Problem: Which TGI is listed for CCCCCCCCCCCCCCCCCc1nnc(N)o1 ?
Result: > 100 µM

Problem: Which TGI is listed for CCCC(CCC)C(=O)OCC1(CO)C/C(=C\c2ccc(C(F)(F)F)cc2)C(=O)O1 (configuration not stated) ?
Result: 33 µM

Problem: Which TGI is listed for O=C(CN1C(=O)S/C(=C\C(Cl)=C\c2ccccc2)C1=O)NCCCn1ccnc1 ?
Result: 4.23 µM

Problem: Which TGI is listed for O=C1OC(OC/C(Br)=C(/Br)COC2OC(=O)C(Cl)=C2Cl)C(Cl)=C1Cl (configuration not stated) ?
Result: 28.2 µM

Problem: Which TGI is listed for O=c1[nH]nc(-c2ccccc2)c2c(-c3ccccc3)onc12 ?
Result: > 100 µM

====

Tested on: U251 CNS
Reply using exactly one outcome from active, inactive

Problem: Per the records of this test, what outcome belongs to COC(=O)Nc1nc2ccc(S(=O)(=O)c3ccc(NC(=O)Nc4cc(C(F)(F)F)ccc4F)cc3)cc2[nH]1 ?
Result: inactive

Problem: Per the records of this test, what outcome belongs to CCc1c2c(nc3ccc(OCc4ccc(B5OC(C)(C)C(C)(C)O5)cc4)cc13)-c1cc3c(c(=O)n1C2)COC(=O)[C@]3(O)CC ?
Result: active

Problem: Per the records of this test, what outcome belongs to CNc1ncc2cc(Oc3ccc(F)cc3F)c(=O)n(C)c2n1 ?
Result: inactive

Problem: Per the records of this test, what outcome belongs to CN(CCCN(C)CCC1CCCCC1)CCC1CCCCC1 ?
Result: inactive

Problem: Per the records of this test, what outcome belongs to Cn1ncnc1C1c2n[nH]c(=O)c3cc(F)cc(c23)NC1c1ccc(F)cc1 (stereo unspecified) ?
Result: inactive

Problem: Per the records of this test, what outcome belongs to O=C(NN1C(=O)CSC12CCC(c1ccccc1)CC2)c1[nH]c2ccc(F)cc2c1-c1ccccc1 (stereo unspecified) ?
Result: inactive

====

Tested on: OVCAR-8 ovarian
Assay: NCI tumour cell line growth inhibition, 48 h; in the data active = GI50 below about 0.43 µM; inactive = the rest
Reply using exactly one outcome from active, inactive

The examples below pair each entry with its known result.
Problem: Per the records of this test, what outcome belongs to Cc1ccccc1NC(=O)c1cc2ccccc2cc1O ?
Result: inactive

Problem: Per the records of this test, what outcome belongs to CCCC(CCC)C(=O)OCC1(CO)C/C(=C\c2ccc(C(F)(F)F)cc2)C(=O)O1 (stereo not drawn) ?
Result: inactive

Problem: Per the records of this test, what outcome belongs to C=C1C(=O)O[C@H]2[C@H]1CC/C(CNC(=O)/C=C/c1ccc(Cl)cc1Cl)=C\CC[C@@]1(C)O[C@@H]21 ?
Result: inactive

Consider the record given below.
Problem: Per the records of this test, what outcome belongs to CCN(CC)CCC(=O)O[C@H]1CC[C@H](CC(C)[C@H]2CC(=O)C(C)C=C(C)[C@H](OC(=O)CCN(CC)CC)C(OC)C(=O)[C@@H](C)CC(C)/C=C/C=C/C=C(C)C(OC)CC3CC[C@H](C)[C@](O)(O3)C(=O)C(=O)N3CCCCC3C(=O)O2)CC1OC (stereo partly drawn) ?
Result: active

====

Test system: CAKI-1 renal
Assay: NCI tumour cell line growth inhibition, 48 h
This listing pairs compounds with measured GI50.

Here's what some known entries look like.
Problem: Which GI50 is listed for CCCCN(CCCC)CCC(O)c1cc2ccc(C(F)(F)F)cc2c2cc(C(F)(F)F)ccc12 (stereo not given) ?
Result: 2.61 µM

Problem: Which GI50 is listed for Cc1ccccc1NC(=O)c1cc2ccccc2cc1O ?
Result: 2.01 µM

Problem: Which GI50 is listed for CCc1nc(N)nc(N)c1C#CC(C)c1cc(-c2ccnc(C)c2)c2oc(C)nc2c1 (stereo not given) ?
Result: < 0.0109 µM

Problem: Which GI50 is listed for O=[N+]([O-])c1cc2c(ccc3occc32)o1 ?
Result: 1.87 µM

Problem: Which GI50 is listed for CNC(=O)c1cncc(/C=C/c2c(Cl)cccc2Cl)c1 ?
Result: 13.6 µM

Problem: Which GI50 is listed for Oc1ccc(O)c2c1C1(Cl)C(Cl)=C(Cl)C2(Cl)C1(Cl)Cl ?
Result: 2.44 µM

Problem: Which GI50 is listed for Cc1cc(Cl)ccc1Nc1nc(C(F)(F)F)ccc1C(=O)Nc1cccc(C(F)(F)F)c1 ?
Result: 3.61 µM

Problem: Which GI50 is listed for COc1ccc2c(c1OC)C(=O)O[C@@H]2[C@H]1c2c(c(Br)c3c(c2OC)OCO3)CCN1C ?
Result: 4.22 µM

Problem: Which GI50 is listed for Cc1ccc(S(=O)(=O)Nc2cc(Sc3ccccc3)c(O)c3ccccc23)cc1 ?
Result: 3.16 µM

Continuing:
Problem: Which GI50 is listed for c1ccc(/C(=N\Nc2ccc3ccccc3n2)c2ccccn2)cc1 ?
Result: 0.0927 µM

====

This listing pairs compounds with measured TGI.
Tested on: A549 NSCLC
Test: NCI tumour cell line growth inhibition, 48 h
Where a SMILES comes first, the peptide text is derived from it.

Here's what some known entries look like.
Problem: Which TGI is listed for COC1(Cc2ccccc2)C(=O)c2ccccc2N1C(C)=O (stereo not given) ?
Result: > 100 µM

Problem: Which TGI is listed for O=C1Nc2ccc(Br)cc2/C1=C/C(=O)c1ccccc1 ?
Result: > 62.6 µM

Problem: Which TGI is listed for Cc1ccc(F)c2c(=O)cc(-c3ccccc3)[nH]c12 ?
Result: > 100 µM

Problem: Which TGI is listed for COc1cc(Cc2ccc3c(c2C#N)N(C)c2ccccc2S3)cc(OC)c1OC ?
Result: > 100 µM

Problem: Which TGI is listed for Oc1ccc(O)c2c1C1(Cl)C(Cl)=C(Cl)C2(Cl)C1(Cl)Cl ?
Result: 37.4 µM

Problem: Which TGI is listed for CC(=O)NC(CO)C(=O)NC(Cc1ccc(O)cc1)C(=O)NCC(N)=O (stereo not drawn) (Ac-Ser-Tyr-Gly-NH2; configuration not given here) ?
Result: > 100 µM

Continuing:
Problem: Which TGI is listed for CC(=O)O[C@H]1CC[C@@]2(C)C(=C/C(=N\[N+](=O)[O-])[C@H]3C4CCC([C@H](C)CCCC(C)C)[C@@]4(C)CCC32)C1 (stereo not given in full) ?
Result: > 100 µM

Problem: Which TGI is listed for COc1cc2nc(N3CCC[C@@H](NC4=CC(=O)c5ccccc5C4=O)C3)nc(N)c2cc1OC ?
Result: 3.8 µM

Problem: Which TGI is listed for Cc1cn(Cc2ccccc2CCl)c(=O)n(Cc2ccccc2CCl)c1=O ?
Result: 14.2 µM

Problem: Which TGI is listed for CC1(C)N=C(Oc2ccccc2)n2nccc2N1 ?
Result: > 100 µM

Problem: Which TGI is listed for Cc1cn2c(/C=C3/C(=O)Nc4ccccc43)c(C)nc2s1 ?
Result: 50.7 µM

Problem: Which TGI is listed for COC(=O)C1(C)OC(C)=NC1(C(=O)OC)C(=O)OC (stereo not given) ?
Result: > 100 µM

Problem: Which TGI is listed for CN1CCCC(C(=O)OCC(=O)C2(O)CCC3C4CCC5=CC(=O)CCC5(C)C4C(O)CC32C)C1 (stereo not given) ?
Result: > 67.6 µM

Problem: Which TGI is listed for CCOC(=O)/C(=N/Nc1ccc(Cl)cc1)N1C(=S)C=C(C)NN(C)C1=S ?
Result: > 100 µM

Problem: Which TGI is listed for CC(Cc1ccc2c(c1)OCO2)N(C)C(=O)C1=CCN(C)CC1 (stereo not given) ?
Result: > 100 µM

Problem: Which TGI is listed for COc1nc(OC)nc(Sc2ccc(Sc3ccc(Sc4nc(OC)nc(OC)n4)cc3)cc2)n1 ?
Result: > 100 µM

Problem: Which TGI is listed for O=C(CC(=O)C1CCOC1=O)C(=O)Nc1ccc(Cl)cc1 (stereo not given) ?
Result: > 100 µM

Problem: Which TGI is listed for COc1cc(NC(=O)c2cc(O)c(C/C=C(\C)CCC=C(C)C)c(O)c2)cc2c1O[C@]1(C)CC[C@@H](O)C(C)(C)[C@H]1C2 ?
Result: 6.66 µM

Problem: Which TGI is listed for Cc1ccccc1NC(=O)CSc1nnc(Cc2ccccc2)o1 ?
Result: > 100 µM

Problem: Which TGI is listed for CSc1nc(C)c(CCCl)c(Cl)n1 ?
Result: > 100 µM
